Entries and their pIC50
# study system: SF9 affinity purified rat FPT (Rattus norvegicus, UniProt Q02293+Q04631)
# assay details: PFT (FPT) inhibitory activity assay, radiolabeled farnesyl pyrophosphate and biotinyl peptide, streptavidin beads
# test conditions: HEPES buffer pH 7.4, 30° C., 30 minutes; read-out: FTase IC50
pIC50: −log10 of the molar value.

| compound | pIC50 |
| --- | --- |
| C=CCNC(=O)c1ccccc1S(=O)(=O)Cc1c(O[C@H](Cn2ccnc2)c2ccccc2)ccc2c1CCCC2=O | 9.70 |
| CCOC(=O)C(C)NC(=O)c1ccccc1SCc1c(O[C@H](Cn2ccnc2)c2ccccc2)ccc2c1CCCC2=O (stereo partly shown) | 8.40 |
| O=C(NCc1ccco1)c1ccccc1S(=O)(=O)Cc1c(O[C@H](Cn2ccnc2)c2ccccc2)ccc2c1CCCC2=O | 9.70 |
| O=C1CCCc2c1ccc(O[C@H](Cn1ccnc1)c1ccccc1)c2NS(=O)(=O)c1ccccc1 | 7.51 |
| O=C1CCCc2c1ccc(O[C@H](Cn1ccnc1)c1ccccc1)c2CSc1ccccc1 | 9.52 |
| C[C@H](O)CNC(=O)c1ccccc1SCc1c(O[C@H](Cn2ccnc2)c2ccccc2)ccc2c1CCCC2=O | 9.70 |
| O=C1CCCc2c1ccc(O[C@H](Cn1ccnc1)c1ccccc1)c2Br | 7.60 |

* * *

Entries and their log10(IC50)
# study system: SF9 affinity purified rat FPT (Rattus norvegicus, UniProt Q02293+Q04631)
# assay details: PFT (FPT) inhibitory activity assay, radiolabeled farnesyl pyrophosphate and biotinyl peptide, streptavidin beads
# test conditions: HEPES buffer pH 7.4, 30° C., 30 minutes; read-out: FTase IC50
readout label: log10(IC50) (log10 of the value in nM)

| compound | meas value |
| --- | --- |
| O=C1CCCc2c1ccc(O[C@H](Cn1ccnc1)c1ccccc1)c2CNS(=O)(=O)c1cccc(Cl)c1 [Compound 42e] | 0.18 |
| COCCNC(=O)c1ccccc1S(=O)(=O)Cc1c(O[C@H](Cn2ccnc2)c2ccccc2)ccc2c1CCCC2=O [Compound 264] | -0.70 |
| O=C1CCCc2c1ccc(O[C@H](Cn1ccnc1)c1ccccc1)c2CN1CCN(c2ccccn2)CC1 [Compound 147] | 1.28 |
| O=C1CCCc2c1ccc(O[C@H](Cn1ccnc1)c1ccccc1)c2COc1cccc(F)c1 [Compound 102] | 0.70 |
| COC(=O)c1cccc(S(=O)(=O)Cc2c(O[C@H](Cn3ccnc3)c3ccccc3)ccc3c2CCCC3=O)c1 [Compound 156] | 0.70 |
| C[C@H](O)CNC(=O)c1ccccc1S(=O)(=O)Cc1c(O[C@H](Cn2ccnc2)c2ccccc2)ccc2c1CCCC2=O [Compound 201] | -0.70 |
| O=C(NCc1ccco1)c1cccc(S(=O)(=O)Cc2c(O[C@H](Cn3ccnc3)c3ccccc3)ccc3c2CCCC3=O)c1 [Compound 230] | -0.70 |
| O=C1CCCc2c1ccc(O[C@H](Cn1ccnc1)c1ccccc1)c2CNS(=O)(=O)c1cc(Cl)sc1Cl [Compound 42d] | 0.30 |
| CC(C)C(Cn1ccnc1)Oc1ccc2c(c1CS(=O)(=O)c1ccccc1)CCCC2=O (stereo not drawn) [Compound 63l] | 0.74 |
| CC[C@H](C)CNC(=O)c1cccc(S(=O)(=O)Cc2c(O[C@H](Cn3ccnc3)c3ccccc3)ccc3c2CCCC3=O)c1 [Compound 248] | -0.70 |
| CC[C@H](C)CNC(=O)c1ccc(SCc2c(O[C@H](Cn3ccnc3)c3ccccc3)ccc3c2CCCC3=O)cc1 [Compound 251] | -0.70 |
| O=C(NCc1ccco1)c1ccccc1SCc1c(O[C@H](Cn2ccnc2)c2ccccc2)ccc2c1CCCC2=O [Compound 240] | -0.70 |
| COC(=O)CCc1c(O[C@H](Cn2ccnc2)c2ccccc2)ccc2c1CCCC2=O [Compound 31] | 1.00 |
| CC(C)COCc1c(O[C@H](Cn2ccnc2)c2ccccc2)ccc2c1CCCC2=O [Compound 19a] | 0.28 |
| O=C1CCCc2c1ccc(O[C@H](Cn1ccnc1)c1ccccc1)c2NC(=O)c1cccc2cccnc12 [Compound 40g] | -0.10 |

* * *

# study system: SF9 affinity purified rat FPT (Rattus norvegicus, UniProt Q02293+Q04631)
# assay details: PFT (FPT) inhibitory activity assay, radiolabeled farnesyl pyrophosphate and biotinyl peptide, streptavidin beads
# test conditions: HEPES buffer pH 7.4, 30° C., 30 minutes; read-out: FTase IC50
pIC50: −log10 of the molar value. Where a name gives a salt, the structure may show the parent alone.
readout label: pIC50

| compound | meas value |
| --- | --- |
| O=C1CCCc2c1ccc(O[C@H](Cn1ccnc1)c1ccccc1)c2CNS(=O)(=O)c1ccccc1 [Compound 42] | 8.82 |
| O=C(NC(CO)CO)c1cccc(S(=O)(=O)Cc2c(O[C@H](Cn3ccnc3)c3ccccc3)ccc3c2CCCC3=O)c1 [Compound 236] | 9.70 |
| O=C1CCCc2c1ccc(O[C@H](Cn1ccnc1)c1ccccc1)c2NC(=O)c1nccc2ccccc12 [Compound 40a] | 9.19 |
| O=C(NCc1c(O[C@H](Cn2ccnc2)c2ccccc2)ccc2c1CCCC2=O)c1ccccc1 [Compound 42i] | 8.82 |
| COC(=O)c1ccc(N(C)Cc2c(O[C@H](Cn3ccnc3)c3ccccc3)ccc3c2CCCC3=O)cc1 [Compound 13] | 8.70 |
| CC[C@H](CO)NC(=O)c1cccc(SCc2c(O[C@H](Cn3ccnc3)c3ccccc3)ccc3c2CCCC3=O)c1 [Compound 246] | 9.70 |
| C[C@@H](O)CNC(=O)c1ccc(S(=O)(=O)Cc2c(O[C@H](Cn3ccnc3)c3ccccc3)ccc3c2CCCC3=O)cc1 [Compound 203] | 8.92 |
| O=C(NCCO)c1ccc(SCc2c(O[C@H](Cn3ccnc3)c3ccccc3)ccc3c2CCCC3=O)cc1 [Compound 174] | 8.52 |
| CSCC[C@H](N)C(=O)NCc1c(O[C@H](Cn2ccnc2)c2ccccc2)ccc2c1CCCC2=O [Compound 42k] | 7.80 |
| O=C1CCCc2c1ccc(O[C@H](Cn1ccnc1)c1ccccc1)c2CNS(=O)(=O)c1ccc2ccccc2c1 [Compound 42f] | 8.40 |
| N#Cc1ccccc1NCc1c(O[C@H](Cn2ccnc2)c2ccccc2)ccc2c1CCCC2=O [Compound 149] | 8.52 |
| O=C1CCCc2c1ccc(O[C@H](Cn1ccnc1)c1ccccc1)c2CS(=O)(=O)c1ccccn1 [Compound 10, hydrochloride] | 9.52 |
| COC(=O)c1ccc(S(=O)(=O)Cc2c(O[C@H](Cn3ccnc3)c3ccccc3)ccc3c2CCCC3=O)cc1 [Compound 155] | 7.70 |
| CC[C@H](C)CNC(=O)c1ccccc1SCc1c(O[C@H](Cn2ccnc2)c2ccccc2)ccc2c1CCCC2=O [Compound 250] | 9.70 |
| O=C(NC(CO)CO)c1ccccc1S(=O)(=O)Cc1c(O[C@H](Cn2ccnc2)c2ccccc2)ccc2c1CCCC2=O [Compound 237] | 9.55 |
| O=C(Nc1c(O[C@H](Cn2ccnc2)c2cccnc2)ccc2c1CCCC2=O)c1cnccn1 [Compound 63e] | 8.01 |
| C#CCNC(=O)c1ccc(SCc2c(O[C@H](Cn3ccnc3)c3ccccc3)ccc3c2CCCC3=O)cc1 [Compound 212] | 9.70 |
| CCCc1c(S[C@H](Cn2ccnc2)c2ccccc2)ccc2c1CCCC2=O [Compound 62] | 8.00 |
| O=C1CCCc2c1ccc(O[C@H](Cn1ccnc1)c1ccccc1)c2CNS(=O)(=O)c1ccc(F)cc1F [Compound 42b] | 8.46 |
| CNC(=O)c1ccccc1S(=O)(=O)Cc1c(O[C@H](Cn2ccnc2)c2ccccc2)ccc2c1CCCC2=O [Compound 164] | 8.28 |
| O=C(O)c1cccc(S(=O)(=O)Cc2c(O[C@H](Cn3ccnc3)c3ccccc3)ccc3c2CCCC3=O)c1 [Compound 161] | 8.30 |
| O=C(O)CCNC(=O)c1ccccc1SCc1c(O[C@H](Cn2ccnc2)c2ccccc2)ccc2c1CCCC2=O [Compound 169] | 8.15 |
| C#CCNC(=O)c1ccccc1SCc1c(O[C@H](Cn2ccnc2)c2ccccc2)ccc2c1CCCC2=O [Compound 211] | 9.70 |
| COC(=O)c1ccccc1S(=O)(=O)Cc1c(O[C@H](Cn2ccnc2)c2ccccc2)ccc2c1CCCC2=O [Compound 154] | 8.59 |
| CC[C@H](CO)NC(=O)c1ccc(S(=O)(=O)Cc2c(O[C@H](Cn3ccnc3)c3ccccc3)ccc3c2CCCC3=O)cc1 [Compound 241] | 9.59 |
| CC(C)c1ccc(OCc2c(O[C@H](Cn3ccnc3)c3ccccc3)ccc3c2CCCC3=O)cc1 [Compound 72] | 8.30 |
| COC(=O)c1ccc(CCc2c(O[C@H](Cn3ccnc3)c3ccccc3)ccc3c2CCCC3=O)cc1 [Compound 27] | 8.00 |
| C=C(C)Cc1c(OC(Cn2ccnc2)c2ccccc2)ccc2c1CCCC2=O (racemic) [Compound 52] | 8.10 |
| CC(C)[S+]([O-])Cc1c(O[C@H](Cn2ccnc2)c2ccccc2)ccc2c1CCCC2=O (mixture of isomers) [Compound 143] | 8.85 |
